- System: NCI-H522 lung
- test protocol: NCI-60 one-dose screen, 48 h (100 = growth as untreated, 0 = no growth, -100 = all killed)
- condition details: 10 µM unless noted
Compounds without any hit were thinned out: in the full panel of roughly 83,000, 20% have a hit.
experimental endpoint: growth (%)
Entry rule: numbers only, all in %.

Lab note: compound C#Cc1nc(C2=C(C)C(OC(C)=O)/C(=N/OC(C)=O)C2)cs1 (stereo not drawn) tested on NCI-H522 lung; recorded growth was -86.2

So the reported growth for Cn1cc(-c2cc(N)n3nc(-c4cn(C)c5ccc(Cl)cc45)cc3n2)c2cc(Cl)ccc21 , on NCI-H522 lung, turned out to be 100

// growth (NCI-H522 lung) for COc1ccc(NC(=O)c2sc3nc(-c4cnccn4)cc(-c4cccs4)c3c2N)cc1 = 78.2

* * *

- Test system: DU-145 prostate
- test protocol: NCI-60 one-dose screen, 48 h (100 = growth as untreated, 0 = no growth, -100 = all killed)
- condition details: 10 µM unless noted
Compounds without any hit were thinned out: in the full panel of roughly 83,000, 20% have a hit.
experimental endpoint: growth (%)
Just the number in %, nothing appended.

Note to self: growth recorded for CCCCCCNC(=O)Oc1ccc(/C(=C(/C)c2ccccc2)c2ccc(OCCN3CCCCCC3)cc2)cc1 was 68.2

The molecule identified as COc1cc(-c2nc3ccc(-c4nnc(SCC(=O)Nc5ccc(C(=O)/C=C/c6ccc(Cl)cc6)cc5)o4)cc3[nH]2)cc(OC)c1OC registered its growth at 104

Lookup result for Cc1sc2nc(NCc3ccccc3Cl)[nH]c(=O)c2c1C ; measured growth: 98

Value of measured growth for the entry Cc1cc(C(=O)Nc2sc3c(c2C(N)=O)CCC(=O)C3)ccc1OCCN1CCCCC1 : 99.2

The reported value for CC(C)(O)c1cncc(-c2ccc3ncnc(N4CCc5cc(F)c(Cl)cc54)c3c2)c1 in terms of growth is 14.4

The molecule identified as COc1cccc(-c2nn(-c3ccccc3)cc2-c2ccnc(N3CCN(C(=O)c4ccccc4)CC3)c2)c1 registered its growth at 91.5

# growth (molecule: O=C1c2c(c3c4cc(Br)ccc4[nH]c3c3ccc4ccccc4c23)C(=O)N1CCO ) is 103

growth recorded for this molecule, Cc1sc2c(c1C)c(=O)nc1c(-c3nc(-c4ccc(F)cc4)no3)n[nH]n12 , is 109

Quick note, growth for COc1ccc(-c2nc3ccc(-c4nnc(SCC(=O)Nc5ccc(C(=O)/C=C/c6ccc(Cl)cc6)cc5)o4)cc3[nH]2)cc1OC landed at 109

The molecule listed as Cc1nc(-c2cc3ccccc3oc2=O)ccc1C(=O)/C=C/c1ccccn1 shows growth equal to 47.3

For reference, reported growth for COc1ccc(/C=C2\SC(=Nc3cc(C)on3)NC2=O)cc1 stands at 109

The molecule listed as N#Cc1c(-c2ccc(Cl)cc2)nc(SCc2ccc(F)cc2)nc1N1CCNCC1 has a reported growth of 61

So for CS(=O)(=O)c1ccc(-c2nc3ccccn3c2/C=N/Nc2nc(-c3ccc(Cl)cc3)cs2)cc1 , the logged growth turned out to be 106

The measured growth associated with Fc1ccc(-c2nc(C(Cl)Cl)nc3cc(-c4ccccc4)nn23)cc1 reads -18.2

In plain terms, CN(C)c1ccc(/C=c2\sc3nc4ccccc4n3c2=O)cc1 has a documented growth of 110

Note to self: growth recorded for N=C1CC(=O)NN1C(=O)CSc1nc2sc3c(c2c(=O)n1-c1ccc(Cl)cc1)CCCC3 was 111

Reported growth ( COc1ccc(Cc2nn(CC(=O)N/N=C/c3ccc(Cl)cc3)c(=O)c3c(C)noc23)cc1 ) = 93

GET /value?item= Nc1ncc(-c2ccc3ncnc(N4CCc5cc(F)c(Cl)cc54)c3c2)cc1CO &field=growth returns 11.3

// sample CN1C(=O)N(c2ccccc2)C2N=C(N/N=C/c3ccccc3)SC21 (stereo unspecified) , its growth was 19.6

Notebook: CC1=C(C)C(=O)C(Nc2cccc(C(F)(F)F)c2)=C(Cl)C1=O , growth read as 99.7

What the record says about Clc1ccc2c(NCCCN3CCOCC3)c3oc4ccc(Cl)cc4c3nc2c1 : growth is 57.2

* * *

- System: MDA-MB-231 breast
- test protocol: NCI-60 one-dose screen, 48 h
- condition details: 10 µM unless noted
This is part of a sample that, as a whole, favours compounds with a hit. Of some 83,000 tested, about 20% had one in any assay. Active and inactive are the calls of the source. Rule for the calls: active = growth percent below 10; inactive = the rest.
Could you please pick one outcome from this set? yes (1) = active, no (0) = inactive

Prompt line: Query: recorded result category for C/C(=N\NC(N)=O)c1c(O)sc(=O)[nH]c1=O in this test
Response line: no (0)

Prompt line: Check the results log: what was the call for Cn1cc(-c2cc(N)n3nc(-c4cn(C)c5ccc(F)cc45)cc3n2)c2cc(F)ccc21 ?
Response line: yes (1)

Prompt line: Test call for this molecule, please: CC1=C(C)C(=O)C(Nc2cccc(C(F)(F)F)c2)=C(Cl)C1=O
Response line: no (0)

Prompt line: What call does the record list for COc1cc(/C=C/C(=O)c2ccccc2)ccc1Oc1nc(NCCO)nc(N2CCOCC2)n1 ?
Response line: no (0)

Prompt line: Hi team, can someone confirm the assay call for Cn1ccnc1C(=O)/C=C/c1ccc(NC(=O)Nc2ccccc2)cc1 ?
Response line: yes (1)

Prompt line: GET /call?item= COc1ccc2[nH]cc(-c3cc(N)n4nc(-c5c[nH]c6ccc(OC)cc56)cc4n3)c2c1 returns the recorded outcome of this test.
Response line: yes (1)

Prompt line: What call does the record list for N[C@@H](Cc1cn(-c2c3ccccc3nc3ccccc23)nn1)C(=O)O ?
Response line: no (0)

Prompt line: What was the test verdict on O=C(N/N=C/c1ccc(Br)s1)c1[nH]c2ccc(Br)cc2c1-c1ccccc1 ?
Response line: yes (1)

Prompt line: Please share the test call associated with CCCC(=O)NC(c1ccc(N(CC)CC)cc1)c1cc(C)c2cccnc2c1O (stereo unspecified) .
Response line: no (0)

Prompt line: Assay result, entry COc1cc(/C=C/C(=O)c2ccc(F)cc2)ccc1Oc1nc(NCCO)nc(N2CCOCC2)n1 — outcome?
Response line: no (0)

Prompt line: Dear colleague, could you share the recorded outcome for COc1ccc(C(=O)/C=C/c2ccc(OCc3ccc(Cl)cc3)c(OC)c2)cc1OC when you have a moment?
Response line: no (0)

Prompt line: Could you kindly confirm the outcome this assay logged for COc1cc(/C=C/C(=O)c2cc(OC)c(OC)c(OC)c2)ccc1Oc1nc(NCCO)nc(N2CCOCC2)n1 ?
Response line: no (0)

Prompt line: GET /call?item= COc1cc2nc(-c3ccc(C)cc3)cc(OCCCNCC3CCCO3)c2cc1OC (stereo unspecified) returns the recorded outcome of this test.
Response line: no (0)

Prompt line: How was CS(=O)(=O)c1ccc(-c2nc3ccccn3c2C=Nc2ccc(Cl)cc2)cc1 classified in this test?
Response line: no (0)

Prompt line: For this molecule, state the assay outcome: CN1C(=O)N(c2ccccc2)C2N=C(N/N=C/c3ccccc3)SC21 (stereo unspecified)
Response line: no (0)

Prompt line: # fetch the recorded call for CC(=O)Oc1ccccc1C(=O)Nc1ccc(C(=O)/C=C/c2cccs2)cc1 here
Response line: no (0)

Prompt line: Write down the call the test reported for this molecule. Item: COc1ccccc1/C=C/C=N/NC1=NC2C(S1)N(C)C(=O)N2C (stereo unspecified)
Response line: no (0)

Prompt line: Per the records of this test, what outcome belongs to CN(C)CCCOc1c2ccc(Cl)cc2nc2c1oc1ccc(Cl)cc12 ?
Response line: yes (1)

Prompt line: Returns: the outcome recorded for Clc1ccc2oc3c(NCCCN4CCOCC4)c4ccccc4nc3c2c1 in this assay.
Response line: no (0)

Prompt line: Please indicate how the test categorized O=C1Nc2ccccc2Oc2ccc(S(=O)(=O)CC3CO3)cc21 (stereo unspecified) .
Response line: no (0)

Prompt line: Dear colleague, could you share the recorded outcome for O=C(CCN1C(=O)/C(=C/c2ccccc2F)SC1=S)N1CCOCC1 when you have a moment?
Response line: no (0)

Prompt line: What is the recorded call for this molecule in the test? COc1ccc(NC(=O)c2sc3nc(-c4cnccn4)cc(-c4cccs4)c3c2N)cc1
Response line: no (0)

Prompt line: Please share the test call associated with CCOC(=O)c1c(NC(=O)c2cccc(C(F)(F)F)c2)sc2cc(O)ccc12 .
Response line: no (0)

Prompt line: // param item: C=CCn1c(SCC(=O)c2ccccc2)nnc1-c1c[nH]c2ccccc12 ; yields the recorded call
Response line: no (0)

Prompt line: Which outcome was entered for the molecule CN(C)c1ccc(/C=c2\sc3nc4ccccc4n3c2=O)cc1 in this test?
Response line: no (0)

Prompt line: // param item: O=C(CN1C(=O)/C(=C/c2ccccc2)SC1=S)N1CCOCC1 ; yields the recorded call
Response line: no (0)
